# credit: PubChem BioAssay (NCI)

- Tested on: SW-620 colon
- experiment_notes: NCI-60 one-dose screen, 48 h
- setup_conditions: 10 µM unless noted
This is part of a sample that, as a whole, favours compounds with a hit. Of some 83,000 tested, about 20% had one in any assay. Calls of active or inactive are those of the source. How the source made its calls: active means growth percent below 10; inactive means the rest.
Use one of these outcomes when replying: active, inactive

CN1CCN(c2nc(-c3cnc4ccccc4n3)cc3ccccc23)CC1 ... inactive
Oc1ccc(-c2nnc(SCc3ccc(O)c4ncccc34)o2)cc1 ... inactive
O=C(Nc1ccc(Cl)cc1)Nc1nc2ccc([N+](=O)[O-])cc2s1 ... active
CCN1C(=O)N(CC)C2C1NN=C1SC(c3ccccc3)=CC(=O)N12 (centres undefined) ... inactive
O=C(Nc1cccc(Cl)c1)Nc1nc2ccc([N+](=O)[O-])cc2s1 ... active
NS(=O)(=O)c1ccc(-n2cc(CC=O)nn2)cc1 ... inactive

[ask] Look up the recorded call for N/C(=N\OC(=O)CSc1nc2ccccc2s1)c1ccc(Cl)cc1 in this test.
[reply] inactive

[ask] Look up the recorded call for O=C(Cn1cc(CN2C(=O)c3ccc([N+](=O)[O-])cc3C2=O)nn1)Nc1ccccc1Br in this test.
[reply] inactive

[ask] Look up the recorded call for CC(C)C(=O)Nc1ccc(-c2nc(-c3cccc(O)c3)c(-c3ccnc(Br)c3)[nH]2)cc1 in this test.
[reply] inactive

* * *

- Test system: A549/ATCC NSCLC
- experiment_notes: NCI-60 one-dose screen, 48 h (100 = growth as untreated, 0 = no growth, -100 = all killed)
- setup_conditions: 10 µM unless noted
This is part of a sample that, as a whole, favours compounds with a hit. Of some 83,000 tested, about 20% had one in any assay.
So I've got a bunch of molecules here, and I need their growth values.
Numbers only, in %.

Below, 3 molecules whose answers are already recorded.
Cc1ccc(Cc2cnc(NC(=O)/C(C#N)=C/c3ccc(-c4ccc(Cl)cc4)o3)s2)cc1 ... 103
COc1cc(/C=N/Nc2ccnc3cc(Cl)ccc23)cc(OC)c1O ... -82.2
O=c1[nH]c2cc(Cl)ccc2n1C1CCN(c2ccc3nnc(Cl)n3n2)CC1 ... 88.3

// moving on: another record for growth
Value sought: growth, system A549/ATCC NSCLC, item Oc1ccc(-c2nnc(SCc3ccc(O)c4ncccc34)o2)cc1 . Result: 15.2

* * *

So I've got a bunch of molecules here, and I need their growth values.
- System: UO-31 renal
- experiment_notes: NCI-60 one-dose screen, 48 h (100 = growth as untreated, 0 = no growth, -100 = all killed)
- setup_conditions: 10 µM unless noted
Compounds without any hit were thinned out: in the full panel of roughly 83,000, 20% have a hit.
One number for each entry, in %.

Parameter requested: growth. Apply to each item below.
1. COc1ccc(CCN2C(=O)/C(=C/c3nc(CO)cs3)SC2=S)cc1
2. COc1ccc([C@H]2[C@H](O)C(=O)N2c2cc(OC)c(OC)c(OC)c2)cc1
3. CNC(=O)c1cc(Oc2ccc3nc(NC(=O)c4cccc(C(F)(F)F)c4)sc3c2)ccn1
4. N#Cc1c(-c2ccccc2)cc(-c2c[nH]c3ccccc23)nc1-c1c[nH]c2ccccc12

[reply]
34
32.4
99.1
68.3

* * *

So I've got a bunch of compounds here, and I need their growth values.
- Test system: NCI-H23 lung
- experiment_notes: NCI-60 one-dose screen, 48 h (100 = growth as untreated, 0 = no growth, -100 = all killed)
- setup_conditions: 10 µM unless noted
Compounds without any hit were thinned out: in the full panel of roughly 83,000, 20% have a hit. Activity calls are given as the source filed them. Rule for the calls: active = growth percent below 10; inactive = the rest.

Parameter requested: growth. Apply to each item below.
1. CS(=O)c1nccc(-c2c(-c3ccc(F)c(OCc4ccc(F)cc4)c3)nc3sccn23)n1 (stereo not given)
2. CCCC(=O)NC(c1cccnc1)c1cc(Cl)c2cccnc2c1O (stereo not given)
3. NC(=O)c1c(NC(=O)c2cccc(OC(F)(F)F)c2)sc2c1CCC(=O)C2
4. Cc1ccc(/C=C/c2nn3c(-c4ccco4)nnc3s2)cc1
5. CCCC(=O)NC(c1cccnc1)c1ccc2c(C)ccnc2c1O (stereo not given)
6. O=C(CN1C(=O)CSC1=O)Nc1ccc(C(=O)/C=C/c2cc3ccccc3nc2Cl)cc1
7. Oc1ccc(CSc2nnc(-c3ccc(Br)cc3)o2)c2cccnc12
8. C=CCn1c(SCC(=O)Nc2cccc(C(=O)/C=C/c3ccccc3)c2)nc2ccccc2c1=O

[reply]
1. 61.6% (inactive)
2. 44.7% (inactive)
3. 25.8% (inactive)
4. 104% (inactive)
5. 37.8% (inactive)
6. 68.4% (inactive)
7. 38.3% (inactive)
8. 77.2% (inactive)

* * *

- Tested on: NCI-H460 lung
- experiment_notes: NCI-60 one-dose screen, 48 h (100 = growth as untreated, 0 = no growth, -100 = all killed)
- setup_conditions: 10 µM unless noted
About 83,000 compounds went through this panel and 20% of them were active in at least one assay; those are over-represented in the sample as a whole.
measured_attribute: growth (%)
Give bare numbers, in %.

Parameter requested: growth. Apply to each item below.
1. COC[C@@]1(C)CC[C@]2(C)CC[C@]3(C)C(=CC[C@@H]4[C@@]5(C)CCCNC(C)(C)[C@@H]5CC[C@]43C)C2C1 (some centres not stated)
2. O=C(CCCCCCN1CC(=O)N2[C@@H](c3cccc(Br)c3)c3[nH]c4ccccc4c3C[C@H]2C1=O)NO
3. NC(=O)C(=Cc1ccc(Cl)cc1)C(N)=O
4. CN(C)c1ncc(/C=C2\SC(=S)N(Cc3ccccc3Cl)C2=O)s1
5. COc1cc2c3c(n(CCCNC4CCC4)c(=O)c2cc1OC)-c1cc2c(cc1C3=O)OCO2
6. Oc1ccccc1/C=N/Nc1nc(N/N=C/c2ccccc2O)nc(N2CCOCC2)n1
7. Clc1ccccc1/C=C/c1nn2c(-c3ccncc3)nnc2s1

[reply]
1: 29.8; 2: 26.4; 3: 89; 4: 29.1; 5: -50.4; 6: 32.5; 7: 102

* * *

So I've got a bunch of compounds here, and I need their growth values.
- Tested on: NCI/ADR-RES ovarian
- experiment_notes: NCI-60 one-dose screen, 48 h (100 = growth as untreated, 0 = no growth, -100 = all killed)
- setup_conditions: 10 µM unless noted
This is part of a sample that, as a whole, favours compounds with a hit. Of some 83,000 tested, about 20% had one in any assay.
Give bare numbers, in %.

Below, 2 compounds whose answers are already recorded.
CN1CCN(Cc2ccc(NC(=O)c3cncc(C#Cc4cnc5ccc(O[C@H]6CCOC6)nn45)c3)cc2C(F)(F)F)CC1 ... -30.9
O=C(Nc1cc(F)cc2cccnc12)c1cnc(N2CCOCC2)cn1 ... 78.2

Parameter requested: growth. Apply to each item below.
1. NC(=O)c1c(NC(=O)c2cccc(OC(F)(F)F)c2)sc2c1CCC(=O)C2
2. COC(=O)c1c(C(=O)OC)c2n(CC(=O)Nc3cccc4cccnc34)c3ccccc3n2c1C(=O)c1ccc(C)cc1
3. O=C(NCCCNc1cc(-c2cn(-c3ccccc3)nc2-c2cccc(O)c2)ccn1)Nc1cccc(C(F)(F)F)c1
4. Cc1ccc(-c2nnc3sc(C4=Cc5ccccc5OC=C4)nn23)cc1
5. CC(=O)C1=NN(c2ccc(Cl)cc2)C(=O)CN1C

[reply]
57.5
96
48.1
98.2
105

* * *

- Test system: SK-MEL-28 melanoma
- experiment_notes: NCI-60 one-dose screen, 48 h (100 = growth as untreated, 0 = no growth, -100 = all killed)
- setup_conditions: 10 µM unless noted
The panel holds about 83,000 compounds, 20% with a hit somewhere; the sample as a whole holds those more often.
So I've got a bunch of molecules here, and I need their growth values.
One number for each entry, in %.

O=C(c1cccc(F)c1)n1ccc2cc(NC(=S)Nc3cccnc3)ccc21 ... 106

Parameter requested: growth. Apply to each item below.
1. O=C(NNc1nc2cc(F)ccc2n2cncc12)c1cnccn1
2. COc1ccc2c(c1)oc1c3[nH]c4ccccc4c3c3c(c21)C(=O)N(O)C3=O

[reply]
1: 26; 2: 76.3

* * *

- Test system: IGROV1 ovarian
- experiment_notes: NCI-60 one-dose screen, 48 h (100 = growth as untreated, 0 = no growth, -100 = all killed)
- setup_conditions: 10 µM unless noted
The panel holds about 83,000 compounds, 20% with a hit somewhere; the sample as a whole holds those more often.
Define the label as Yes when growth is strictly less than 80% and as No in all remaining cases.

Below, 5 compounds whose answers are already recorded.
C=C(C)C(=O)O[C@H]1C[C@@]2(C)OC(=CC2=O)[C@H](C)[C@H](O)[C@H]2OC(=O)C(=C)[C@@H]21 ... Yes
CCOC(=O)c1c(NC(=O)c2ccc(C(C)(C)C)cc2)sc2cc(OCCN3CCCCC3)ccc12 ... Yes
C#C[C@]1(O)CC[C@H]2[C@@H]3CC=C4c5sc(Nc6cc(Cl)ccn6)nc5CC[C@]4(C)[C@H]3CC[C@@]21C ... Yes
CCOC(=O)c1c(Nc2ccccc2)nn2c(-c3ccc(Br)cc3)ccnc12 ... Yes
CC(=O)Nc1ccc(NC(=O)Nc2cccc(-c3nc(-c4ccc(NC(=O)c5cccs5)cc4Cl)no3)c2)cc1C(F)(F)F ... Yes

[ask] Does this compound meet the criterion growth < 80%? O=C(CSc1nnc(-c2cccs2)n1-c1ccccc1)Nc1ccc(F)cc1
[reply] No

[ask] Does this compound meet the criterion growth < 80%? COCCOc1ccc(-c2csc(NC(=O)CN3CCN(CCO)CC3)n2)cc1NS(=O)(=O)c1cccc2c(N(C)C)cccc12
[reply] No

[ask] Does this compound meet the criterion growth < 80%? Fc1ccccc1/C=C(/C1=NCCN1)n1cnc2ccccc21
[reply] No
